Overview of reported IC50 across a group of molecules:
Biological target: cGMP-specific 3',5'-cyclic phosphodiesterase (Homo sapiens, UniProt O76074)
Assay: Inhibition of full length human recombinant N-terminal GST-tagged PDE5A1 expressed in baculovirus infected sf9 cells using cGMP as substrate after 30 mins by fluorescence assay
QUANTITY MEASURED: IC50 (nM)

# MOLECULE, DATA VALUE
records = [
    ("CCCc1nn(C)c2c(=O)[nH]c(-c3cc(C(O)c4ccc(C(=O)NO)cc4)ccc3OCC)nc12 (stereo unspecified)", 10),
    ("CCCc1nn(C)c2c(=O)[nH]c(-c3cc(Cc4ccc(CC(=O)NO)cc4)ccc3OCC)nc12", 15),
    ("CCCc1nn(C)c2c(=O)[nH]c(-c3cc(Cc4ccc(C(=O)NO)s4)ccc3OCC)nc12", 11),
    ("CCCc1nn(C)c2c(=O)[nH]c(-c3cc(C4=CCC(CC(=O)NO)CC4)ccc3OCC)nc12 (stereo unspecified)", 14),
    ("CCCc1nn(C)c2c(=O)[nH]c(-c3cc(-c4ccc(CC(=O)NO)cc4)ccc3OCC)nc12", 10),
    ("CCCc1nn(C)c2c(=O)[nH]c(-c3cc(-c4ccc(C(=O)NO)s4)ccc3OCC)nc12", 7),
]
